biological target: EWSR1 (UniProt Q01844 1-656); assay: BLI
Sequence (Q01844 whole entry): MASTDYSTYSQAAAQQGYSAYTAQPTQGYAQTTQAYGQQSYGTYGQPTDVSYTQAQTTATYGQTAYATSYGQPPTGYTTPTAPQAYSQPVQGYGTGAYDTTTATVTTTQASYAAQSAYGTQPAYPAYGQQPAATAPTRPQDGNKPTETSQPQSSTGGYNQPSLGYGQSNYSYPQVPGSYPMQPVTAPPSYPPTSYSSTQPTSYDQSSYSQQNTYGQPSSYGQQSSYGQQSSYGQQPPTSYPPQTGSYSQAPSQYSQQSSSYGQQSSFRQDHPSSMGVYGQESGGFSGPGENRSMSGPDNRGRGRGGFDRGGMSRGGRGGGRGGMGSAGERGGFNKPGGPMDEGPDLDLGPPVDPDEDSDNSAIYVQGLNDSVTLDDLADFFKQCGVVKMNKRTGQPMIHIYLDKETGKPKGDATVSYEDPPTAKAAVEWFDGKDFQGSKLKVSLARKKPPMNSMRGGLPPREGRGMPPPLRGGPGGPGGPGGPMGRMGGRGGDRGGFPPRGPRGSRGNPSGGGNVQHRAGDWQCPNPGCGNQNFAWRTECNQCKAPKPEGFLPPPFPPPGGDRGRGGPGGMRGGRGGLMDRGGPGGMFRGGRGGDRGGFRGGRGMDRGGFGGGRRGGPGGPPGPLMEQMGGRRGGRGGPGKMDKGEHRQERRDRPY
REPORTED PROPERTY: Kd (nM)
The response must be a number in nM with no trailing unit.

In: # Kd lookup, item CCGAACCCACAGGGACGUAGGAGAUGUUAUUUUGUUUUUAAUAUUUC (ssRNA) [3NCR48]
Out: 91.4
